Data provenance: paper PMC5914168

Listed below: pKi values for each entry.
target-system: STK16 kinase domain (13-305) (Homo sapiens)
Sequence (O75716 13-305): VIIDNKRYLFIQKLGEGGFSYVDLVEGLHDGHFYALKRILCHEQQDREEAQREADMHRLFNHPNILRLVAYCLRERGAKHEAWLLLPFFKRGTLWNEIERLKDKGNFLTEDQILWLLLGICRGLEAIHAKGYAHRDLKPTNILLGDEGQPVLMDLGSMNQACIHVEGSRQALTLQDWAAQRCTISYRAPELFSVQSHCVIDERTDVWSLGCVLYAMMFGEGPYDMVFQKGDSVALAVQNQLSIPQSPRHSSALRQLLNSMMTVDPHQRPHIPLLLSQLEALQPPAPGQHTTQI
assay-remarks: TR-FRET ligand binding displacement assay, STK16
Convention used: pKi is expressed as -log10 of the molar concentration.

# annotated cases, reported pKi shown
COc1cc(Nc2ccnc3ccc(C(F)(F)F)cc23)cc(OC)c1 4.28
COc1ccc(Nc2ccnc3ccc(C(F)(F)F)cc23)c(OC)c1 4.15

Here's the next entry for you.
Problem: Give STK16 kinase domain (13-305) (Homo sapiens) pKi for the following compound: "COc1ccc(Nc2ccnc3ccc(C(F)(F)F)cc23)cc1OC"
Result: 4.62

---

target-system: BMP2K kinase domain (38-345) (Homo sapiens, UniProt Q9NSY1)
Sequence (Q9NSY1 38-345): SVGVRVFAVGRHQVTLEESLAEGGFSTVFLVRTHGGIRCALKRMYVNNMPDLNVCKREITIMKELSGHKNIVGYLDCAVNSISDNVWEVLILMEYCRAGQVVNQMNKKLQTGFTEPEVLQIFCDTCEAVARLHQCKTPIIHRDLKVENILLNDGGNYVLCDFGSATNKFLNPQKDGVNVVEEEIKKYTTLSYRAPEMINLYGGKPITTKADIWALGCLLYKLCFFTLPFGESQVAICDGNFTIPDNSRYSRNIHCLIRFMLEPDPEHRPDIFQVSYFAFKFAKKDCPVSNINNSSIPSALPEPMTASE
assay-remarks: TR-FRET ligand binding displacement assay, BMP2K
experimental-setup: read-out: Binding displacement assay Ki BMP2K; TR-FRET, 16-point dose response
measured-quantity: Ki

Problem: Give Ki for "COc1cc(Nc2ncnc3ccc(C(F)(F)F)cc23)cc(OC)c1"
Result: > 100 µM
